- testDetails: Chromatographic hydrophobicity index, logD of the compound at pH 7.4 by reversed phase HPLC analysis
- Format: physicochemical
- assayContext: buffer
observable: chromatographic logD
Give your answer as a number; write no unit.

**Q:** Fill blank: measured chromatographic logD of the compound `CCN(C)C(=O)Oc1ccc2c(c1)N(Cc1ccccc1)/C(=C/C(C)=O)S2` is ____.
**A:** 3

**Q:** Repeat for the following compound: `CCCCCCCNC(=O)Oc1ccc2c(c1)N(CCc1ccccc1)/C(=C/C(C)=O)S2`
**A:** 4.36

====

- targetEntity: Cholinesterase (Equus caballus)
- Sequence (P81908 whole entry): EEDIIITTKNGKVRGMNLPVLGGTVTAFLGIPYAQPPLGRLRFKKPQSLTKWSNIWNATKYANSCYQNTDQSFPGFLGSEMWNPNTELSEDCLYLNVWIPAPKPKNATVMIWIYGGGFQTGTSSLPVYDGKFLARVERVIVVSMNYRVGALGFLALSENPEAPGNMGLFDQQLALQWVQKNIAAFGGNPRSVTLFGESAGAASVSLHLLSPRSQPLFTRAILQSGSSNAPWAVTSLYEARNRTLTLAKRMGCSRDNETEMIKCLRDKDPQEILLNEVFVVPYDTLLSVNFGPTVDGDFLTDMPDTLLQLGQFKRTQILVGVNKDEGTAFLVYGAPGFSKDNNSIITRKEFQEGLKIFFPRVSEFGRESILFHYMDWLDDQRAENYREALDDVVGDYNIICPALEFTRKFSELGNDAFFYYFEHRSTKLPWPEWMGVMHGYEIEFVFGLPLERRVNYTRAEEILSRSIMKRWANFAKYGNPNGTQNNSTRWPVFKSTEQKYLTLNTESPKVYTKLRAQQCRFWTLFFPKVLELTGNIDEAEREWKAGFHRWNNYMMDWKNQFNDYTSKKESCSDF
- testDetails: Inhibition of equine serum BuChE using butyrylthiocholine iodide as substrate preincubated for 5 mins followed by substrate addition and measured every min for 10 mins by Ellman's method
Define the label as 1 (yes) when IC50 is strictly less than 2000 nM and as 0 (no) in all remaining cases.

**Q:** Identify whether the compound `CCCCCCCNC(=O)Oc1ccc2c(c1)N(Cc1cccc(C)c1)/C(=C/C(C)=O)S2` records IC50 below 2000 nM.
**A:** 1 (yes)

**Q:** Repeat for the following compound: `CCCCCCNC(=O)Oc1ccc2c(c1)N(Cc1ccccc1)/C(=C/C(C)=O)S2`
**A:** 1 (yes)

**Q:** Repeat for the following compound: `CCN1/C(=C/C(C)=O)Sc2ccc(OC(=O)NCc3cccnc3)cc21`
**A:** 0 (no)

**Q:** Repeat for the following compound: `CCN(C)C(=O)Oc1ccc2c(c1)N(CCc1ccccc1)/C(=C/C(C)=O)S2`
**A:** 1 (yes)

**Q:** Repeat for the following compound: `CCN1/C(=C/C(C)=O)Sc2ccc(OC(=O)NCCc3ccccc3)cc21`
**A:** 0 (no)

**Q:** Repeat for the following compound: `CCN1/C(=C/C(C)=O)Sc2ccc(OC(=O)N(C)C)cc21`
**A:** 0 (no)

**Q:** Repeat for the following compound: `CCCCCCCNC(=O)Oc1ccc2c(c1)N(Cc1ccccc1)/C(=C/C(C)=O)S2`
**A:** 1 (yes)

**Q:** Repeat for the following compound: `CCN(C)C(=O)Oc1ccc2c(c1)N(Cc1ccccc1)/C(=C/C(C)=O)S2`
**A:** 1 (yes)

**Q:** Repeat for the following compound: `CCCCCCCNC(=O)Oc1ccc2c(c1)N(CCc1ccccc1)/C(=C/C(C)=O)S2`
**A:** 1 (yes)
